# assay.summary: small-molecule microarray binders of probe aCHRDL2, primary screen, biochemical, biotinylated probe, 635/667 nm fluorescence (AID 1100)
# stated.conditions: higher = more signal
outcome.measure: composite z-score

| molecule | result |
| --- | --- |
| COC(=O)[C@@]1(Cc2ccc(F)cc2)[C@H]2c3cc(C(=O)N4CCCC4)n(CCc4ccc(O)c(O)c4)c3C[C@H]2CN1C(=O)c1ccccc1 | 1.04 |
| C=CCNC(=O)[C@H]1[C@@H]2C(=O)O[C@@H](c3ccccc3)[C@@H](c3ccccc3)N2[C@@H](c2ccc(O)cc2)[C@]12C(=O)Nc1ccc(C#CC3(O)CCCCCC3)cc12 | 0.105 |
| COC(=O)[C@@]1(Cc2ccccc2N=[N+]=[N-])N=C(c2ccc(OCCCO)cc2)O[C@H]1c1ccccc1N=[N+]=[N-] | 1 |
| COc1ccc(C(O)C2C=CC3C(=O)N(c4ccccc4)C(=O)C3N2Nc2ccc([N+](=O)[O-])cc2)cc1 (centres undefined) | 1.23 |
